- Tested on: Radical scavenging activity
- assay-procedure: Antioxidant activity assessed as DPPH radical scavenging activity at 115 uM after 30 mins
- Format: functional
measured-quantity: Activity (%)

• CC(C)=CC(=O)C/C(C)=C/CC/C(C)=C/C(=O)C/C(C)=C/Cc1cc(O)cc(C)c1O = 95.7
• C/C(=C/CC/C(C)=C/CC/C(C)=C\C(=O)C/C(C)=C/Cc1cc(O)cc(C)c1O)CO = 96
• CC(C)=CCC/C(C)=C/CC/C(C)=C\C(=O)C/C(C)=C/Cc1cc(O)cc(C)c1O = 95.4
• CC1=CC(=O)C=C(C/C=C(\C)CC(=O)/C=C(\C)CC/C=C(\C)Cc2cc(C)co2)C1=O = 16
• Cc1cc(C(C)(C)C)c(O)c(C(C)(C)C)c1 = 22

----------
- assay-procedure: ABTS radical scavenging activity assessed as trolox equivalents by TEAC assay
- Assay type: physicochemical
measured-quantity: Activity (mmol/L)

• CC(C)=CCC/C(C)=C/CC/C(C)=C\C(=O)C/C(C)=C/Cc1cc(O)cc(C)c1O = 0.14
• CC(C)=CC(=O)C/C(C)=C/CC/C(C)=C/C(=O)C/C(C)=C/Cc1cc(O)cc(C)c1O = 0.37
• C/C(=C/CC/C(C)=C/CC/C(C)=C\C(=O)C/C(C)=C/Cc1cc(O)cc(C)c1O)CO = 0.09
• C/C(=C/C(=O)C/C(C)=C/Cc1cc(O)cc(C)c1O)CC/C=C(\C)Cc1cc(C)co1 = 0.28
• CC1=CC(=O)C=C(C/C=C(\C)CC(=O)/C=C(/C)CC/C=C(\C)Cc2cc(C)co2)C1=O = 0.3

----------
- Test system: Radical scavenging activity
- assay-procedure: Antioxidant activity assessed as DPPH radical scavenging activity at 230 uM after 30 mins
- Type: functional
measured-quantity: Activity (%)

* CC(C)=CC(=O)C/C(C)=C/CC/C(C)=C/C(=O)C/C(C)=C/Cc1cc(O)cc(C)c1O | 95.5
* Cc1cc(C(C)(C)C)c(O)c(C(C)(C)C)c1 | 35.6
* CC(C)=CC(O)C/C(C)=C/CC/C(C)=C\C(=O)C/C(C)=C/Cc1cc(O)cc(C)c1O (stereo unspecified) | 95.5
* C/C(=C\C(=O)C/C(C)=C/Cc1cc(O)cc(C)c1O)CC/C=C(\C)Cc1cc(C)co1 | 95.4
* CC1=CC(=O)C=C(C/C=C(\C)CC(=O)/C=C(/C)CC/C=C(\C)Cc2cc(C)co2)C1=O | 38.6
* CC(C)=CCC/C(C)=C/CC/C(C)=C\C(=O)C/C(C)=C/Cc1cc(O)cc(C)c1O | 95.4

----------
Each entry below carries its reported TGI.
- Tested on: MCF7
- assay-procedure: Cytotoxicity against human MCF7 cells
- Assay type: functional
measured-quantity: TGI (µg/mL)

- C/C(=C\C(=O)C/C(C)=C/Cc1cc(O)cc(C)c1O)CC/C=C(\C)Cc1cc(C)co1: 2.1
- C/C(=C/C(=O)C/C(C)=C/Cc1cc(O)cc(C)c1O)CC/C=C(\C)Cc1cc(C)co1: 1.7
- C/C(=C/CC/C(C)=C/CC/C(C)=C\C(=O)C/C(C)=C/Cc1cc(O)cc(C)c1O)CO: 4
- C/C(=C/CC/C(C)=C/CC/C(C)=C/C(=O)C/C(C)=C/Cc1cc(O)cc(C)c1O)CO: 5.1
